# assay_system: Histone deacetylase 8 (Homo sapiens)
# Sequence (Q9BY41 whole entry, the tested form may be a part): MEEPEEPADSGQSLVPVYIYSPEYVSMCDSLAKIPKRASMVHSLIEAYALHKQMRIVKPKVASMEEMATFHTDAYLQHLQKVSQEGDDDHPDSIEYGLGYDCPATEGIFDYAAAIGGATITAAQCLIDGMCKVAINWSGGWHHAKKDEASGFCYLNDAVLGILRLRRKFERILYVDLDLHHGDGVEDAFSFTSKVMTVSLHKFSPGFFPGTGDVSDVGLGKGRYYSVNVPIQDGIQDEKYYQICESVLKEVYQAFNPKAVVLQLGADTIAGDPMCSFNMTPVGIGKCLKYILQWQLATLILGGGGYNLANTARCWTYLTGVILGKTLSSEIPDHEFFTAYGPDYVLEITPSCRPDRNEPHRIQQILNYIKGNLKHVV
# test: Inhibition of recombinant human C-terminal His-tagged HDAC8 (1 to 377 residues) expressed in insect cells using RHK-K(Ac)-AMC as substrate measured after 60 mins by fluorescence assay
Parameter IC50: see the listing below.

{"structure": "COc1cc(Oc2ccc3nc(/C=C/C(=O)NO)ccc3c2)cc(OC)c1OC", "assay_system": "Histone deacetylase 8 (Homo sapiens)", "IC50, µM": 2.82}
{"structure": "COc1ccc(Oc2ccc3nc(/C=C/C(=O)NO)ccc3c2)cc1", "assay_system": "Histone deacetylase 8 (Homo sapiens)", "IC50, µM": 7.75}
{"structure": "O=C(/C=C/c1ccc2cc(Oc3ccc([N+](=O)[O-])cc3)ccc2n1)NO", "assay_system": "Histone deacetylase 8 (Homo sapiens)", "IC50, µM": 2.32}
{"structure": "COc1ccc(-c2ccc3nc(/C=C/C(=O)NO)ccc3c2)cc1", "assay_system": "Histone deacetylase 8 (Homo sapiens)", "IC50, µM": 4.77}
